Reported molar heat capacity at constant pressure is given for each of the following compounds.
ASSAY_DETAILS: molar heat capacity at constant pressure
ASSAY_CONDITIONS: 314.15 K; 101.33 kPa; Liquid; Small sample (50 mg) DSC
Field format: number, assumed J/K/mol, no unit text.

Consider the reported molar heat capacity at constant pressure for these compounds:
>>> observed_value("OCCCO")
183.51
>>> observed_value("OCCCCCCCO")
311.83
>>> observed_value("OCCCCCO")
244.14
>>> observed_value("OCCO")
154.79

Kindly review the next compound as well.
# get_value(readout='molar heat capacity at constant pressure', item= "OCCCCO" )
212.47
